Test system: Fer (mouse);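 further: 11-residue human phosphosite peptides and single-mutation variants displayed on the E. coli surface, counted by deep sequencing, each peptide's frequency after selection divided by its frequency in the unselected input library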;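 further: frequency after pTyr selection over input frequency; kinase dosed for 20-30% of maximal phosphorylation in three min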
assay_protocol: phosphorylation enrichment, bacterial display (enrichment ratio); higher = better substrate or ligand; peptides without Tyr show the background
Recorded phosphorylation enrichment for the following sequences
Reply with the value as a number alone.

- primary_sequence: "DIRAQYDELAR [KRT18_Y256]"
  measurement_label: "phosphorylation enrichment"
  test_value: 0.503
- primary_sequence: "SEPSGYQDNIA [DES_Y363_A360P]"
  measurement_label: "phosphorylation enrichment"
  test_value: 0.525
- primary_sequence: "SNKLTYGTVVF [ACOX1_Y275_M278V]"
  measurement_label: "phosphorylation enrichment"
  test_value: 1.01
- primary_sequence: "STGWSYAGVAV [KLHL3_Y577_R575W]"
  measurement_label: "phosphorylation enrichment"
  test_value: 0.616
- primary_sequence: "KLLLKYSFHDA [RNF213_Y4141_V4146A]"
  measurement_label: "phosphorylation enrichment"
  test_value: 0.476

# input Give its phosphorylation enrichment value. Item: RAKLFYQEVPA [METTL11B_Y76]
# output 1.64

# input Give its phosphorylation enrichment value. Item: MTYMFYRENLR [NLRP14_Y443_V441M]
# output 0.456

Where do the numbers come from? From the supplement of paper PMC10065799.
